# Tested System: human PTH-2 receptor (human, UniProt P49190 25-550)
# Sequence (P49190 25-550): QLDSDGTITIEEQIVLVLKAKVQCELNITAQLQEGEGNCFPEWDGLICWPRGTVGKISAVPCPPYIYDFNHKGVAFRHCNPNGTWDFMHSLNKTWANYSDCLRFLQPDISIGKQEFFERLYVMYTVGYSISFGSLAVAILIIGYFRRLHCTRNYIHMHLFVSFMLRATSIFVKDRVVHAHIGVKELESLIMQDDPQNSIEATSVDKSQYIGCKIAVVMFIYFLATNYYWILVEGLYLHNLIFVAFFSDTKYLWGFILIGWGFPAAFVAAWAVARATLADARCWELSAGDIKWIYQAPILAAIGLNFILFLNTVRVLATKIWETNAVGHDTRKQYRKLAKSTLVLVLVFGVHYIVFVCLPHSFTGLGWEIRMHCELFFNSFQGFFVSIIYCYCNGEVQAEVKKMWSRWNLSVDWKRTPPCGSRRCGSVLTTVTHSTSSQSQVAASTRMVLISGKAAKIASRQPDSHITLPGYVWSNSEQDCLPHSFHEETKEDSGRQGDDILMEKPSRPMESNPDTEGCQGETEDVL
# Test Details: cell-based or functional assay
Where no end group is shown, it is not given here.
Here, each record is paired with measured cAMP accumulation EC50 data.

Some binders with known cAMP accumulation EC50 results, for comparison:
Binder: AVSEHQLLHDKGKSLNSMERVEWLRKKLQDVHNY-NH2 [Hybrid-1 hPTHrP-(1-14)/[Y34]hPTH-(15-34)NH2]
cAMP accumulation EC50: > 1000 nM

Binder: SVSEHQLMHNLGKHLNSMERVEFLRKKLQDVHNY-NH2 [[H5, F23, Y34]hPTH-(1-34)NH2]
cAMP accumulation EC50: > 1000 nM

Binder: AVSEHQLLHDKGKSIQDLRRREWLRKKLQDVHNY-NH2 [Hybrid-4 hPTHrP-(1-21)/[Y34]hPTH-(22-34)NH2]
cAMP accumulation EC50: > 1000 nM

Binder: AVSEHQLLHDKGKSIQDLRRRFFLRKKLQDVHNY-NH2 (Synthetic PTH/PTHrP hybrid ligand; also called PTHrP-(1-23)/PTH-(24-34)) [Hybrid-3 hPTHrP-(1-23)/[Y34]hPTH-(24-34)NH2]
cAMP accumulation EC50: > 1000 nM

Binder: SVSEIQLMHNLGKHLNSMERVEWLRKKLQDVHNY-NH2 [[Tyr^34]hPTH-(1-34)NH2]
cAMP accumulation EC50: 0.6 nM

// next item, cAMP accumulation EC50 requested
// AVSEIQLLHDKGKSIQDLRRRFFLHHLIAEIHTAEY-NH2 [[I5, Y36]hPTHrP-(1-36)NH2] : cAMP accumulation EC50 value = 7 nM
